# Test system: Mycobacterium tuberculosis
# ASSAY: Antitubercular activity against actively growing Mycobacterium tuberculosis H37Rv by microplate alamar blue assay
# Assay type: functional
MEASURED_QUANTITY: MIC (µM)
Give the number; µM is assumed, so skip it.

Find the recorded MIC belonging to C=CC[N+](C)(C)CCCN1c2ccccc2Sc2ccc(Cl)cc21 and report it.
30.6

Find the recorded MIC belonging to C[N+](C)(CCCN1c2ccccc2Sc2ccccc21)Cc1ccccc1Cl and report it.
14.3

Find the recorded MIC belonging to C[N+](C)(CCCN1c2ccccc2Sc2ccc(Cl)cc21)Cc1ccc([N+](=O)[O-])cc1 and report it.
12.3

Find the recorded MIC belonging to C[N+](C)(CCCN1c2ccccc2Sc2ccccc21)Cc1cccc(Cl)c1 and report it.
7.5

Find the recorded MIC belonging to C[N+](C)(CCCN1c2ccccc2Sc2ccc(C(F)(F)F)cc21)Cc1ccccc1Cl and report it.
7.3

Find the recorded MIC belonging to Cc1ccc(C[N+](C)(C)CCCN2c3ccccc3Sc3ccc(Cl)cc32)cc1 and report it.
4.7

Find the recorded MIC belonging to C[N+](C)(CCCN1c2ccccc2Sc2ccc(C(F)(F)F)cc21)Cc1ccc(Cl)cc1 and report it.
3.81

Find the recorded MIC belonging to C[N+](C)(CCCN1c2ccccc2Sc2ccccc21)Cc1ccc(Cl)cc1 and report it.
9.31

Find the recorded MIC belonging to COc1ccc(C[N+](C)(C)C(C)CN2c3ccccc3Sc3ccccc32)cc1 (stereo not given) and report it.
14.4

Find the recorded MIC belonging to CC(CN1c2ccccc2Sc2ccccc21)[N+](C)(C)Cc1ccccc1 (stereo not given) and report it.
31.6
